Cited source: patent US20180194862A1

biological target: T1, cynomolgus mesothelin (cynomolgus); assay: SPR
T1 construct: also called cynoMSLN; Cyno MSLN
Assignment: determine reported Kd for the given binders.
Numeric answer only, unit nM assumed.

Looking for the measured Kd of HuAM17 (antibody, V domains shown, fully human antibody) VH: EVQLVQSGAEVKKPGASVKVSCKASGDTFNRYYVQWVRQAPGQGLEWMGIINPSGVSTTYAQKFQGRVTMTRDTSTSTVYMELSSLRSEDTAVYYCAESRVPGYNIFAMDVWGQGTLVTVSS VL: SYELTQPPSVSVSPGQTASITCSGDKLGDKYASWYQQKPGQSPVLVIYQDNRRPSGIPERFSGSNSGNTATLTISGTQAMDEADYYCQAWDSDTYVFGTGTKVTVL , can you help?
3.4

// same read-out, input: HuAM15 (antibody, V domains shown, fully human antibody) VH: EVQLVQSGAEVKKPGASVKVSCKASGDTFKRYYVHWVRQAPGQGLEWMGIINPSGVSTTYAQKFQGRVTMTRDTSTSTVYMELSSLRSEDTAVYYCAEVRGSGFNYFGMDVWGQGTLVTVSS VL: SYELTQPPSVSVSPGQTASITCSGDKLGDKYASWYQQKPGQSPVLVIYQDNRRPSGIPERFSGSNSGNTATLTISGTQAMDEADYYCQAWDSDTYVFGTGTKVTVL
4.5

// same read-out, input: HuAb17 (antibody, V domains shown, fully human antibody) VH: EVQLVQSGAEVKEPGASVKVSCKASGDTFNRYYVHWARQAPGQGLEWMGIINPSGVSTTYAQKFQGRVTMTRDTPTNTVYMELGSLRPEDTAVYFCAESRGSGYNYFAMDVWGQGTLVTVSS VL: SYELTQPPSVSVSPGQTADITCSGDKLGDKYASWYQQKPGQSPVLVIYQDNRRPSGIPERFSGSNSGNTATLTISGTQAMDEADYYCQAWDSDTYVFGPGTKVTVL
8.1

// same read-out, input: HuAM1 (antibody, V domains shown, fully human antibody) VH: EVQLVQSGAEVKKPGASVKVSCKASGDTFKRYYVQWVRQAPGQGLEWMGIINPSGVSTTYAQKFQGRVTMTRDTSTSTVYMELSSLRSEDTAVYYCAESRGSGYNYFAMDVWGQGTLVTVSS VL: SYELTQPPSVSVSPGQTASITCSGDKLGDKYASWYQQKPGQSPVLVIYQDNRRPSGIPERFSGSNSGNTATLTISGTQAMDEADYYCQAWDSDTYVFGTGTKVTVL
11

// same read-out, input: HuAM6 (antibody, V domains shown, fully human antibody) VH: EVQLVQSGAEVKKPGASVKVSCKASGDTFNRYYVHWVRQAPGQGLEWMGIINPSGVSTTYAQKFQGRVTMTRDTSTSTVYMELSSLRSEDTAVYYCAESRVPGYNNFAMDVWGQGTLVTVSS VL: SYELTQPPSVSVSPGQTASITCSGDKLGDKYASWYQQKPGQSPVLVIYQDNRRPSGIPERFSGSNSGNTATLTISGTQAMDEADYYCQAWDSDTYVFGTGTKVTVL
3.9

// same read-out, input: HuAM16 (antibody, V domains shown, fully human antibody) VH: EVQLVQSGAEVKKPGASVKVSCKASGDTFNRYYVQWVRQAPGQGLEWMGIINPSGVSTTYAQKFQGRVTMTRDTSTSTVYMELSSLRSEDTAVYYCAETRGSGFNYFGMDVWGQGTLVTVSS VL: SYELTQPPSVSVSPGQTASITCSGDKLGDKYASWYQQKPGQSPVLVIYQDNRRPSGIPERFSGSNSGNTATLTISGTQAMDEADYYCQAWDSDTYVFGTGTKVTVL
4.1
